target: hTLR8 (Homo sapiens, UniProt Q9NR97); construct: expressed in transfected cells; host or cells: HEK-Blue hTLR cells; assay: agonistic activity on hTLR8, HEK-Blue hTLR cells, SEAP reporter (QUANTI-Blue); assay type: cell-based; details: TLR 8 EC50, HEK-Blue hTLR cells, SEAP reporter, OD650, cultured 1 day
Sequence (Q9NR97 27-1041): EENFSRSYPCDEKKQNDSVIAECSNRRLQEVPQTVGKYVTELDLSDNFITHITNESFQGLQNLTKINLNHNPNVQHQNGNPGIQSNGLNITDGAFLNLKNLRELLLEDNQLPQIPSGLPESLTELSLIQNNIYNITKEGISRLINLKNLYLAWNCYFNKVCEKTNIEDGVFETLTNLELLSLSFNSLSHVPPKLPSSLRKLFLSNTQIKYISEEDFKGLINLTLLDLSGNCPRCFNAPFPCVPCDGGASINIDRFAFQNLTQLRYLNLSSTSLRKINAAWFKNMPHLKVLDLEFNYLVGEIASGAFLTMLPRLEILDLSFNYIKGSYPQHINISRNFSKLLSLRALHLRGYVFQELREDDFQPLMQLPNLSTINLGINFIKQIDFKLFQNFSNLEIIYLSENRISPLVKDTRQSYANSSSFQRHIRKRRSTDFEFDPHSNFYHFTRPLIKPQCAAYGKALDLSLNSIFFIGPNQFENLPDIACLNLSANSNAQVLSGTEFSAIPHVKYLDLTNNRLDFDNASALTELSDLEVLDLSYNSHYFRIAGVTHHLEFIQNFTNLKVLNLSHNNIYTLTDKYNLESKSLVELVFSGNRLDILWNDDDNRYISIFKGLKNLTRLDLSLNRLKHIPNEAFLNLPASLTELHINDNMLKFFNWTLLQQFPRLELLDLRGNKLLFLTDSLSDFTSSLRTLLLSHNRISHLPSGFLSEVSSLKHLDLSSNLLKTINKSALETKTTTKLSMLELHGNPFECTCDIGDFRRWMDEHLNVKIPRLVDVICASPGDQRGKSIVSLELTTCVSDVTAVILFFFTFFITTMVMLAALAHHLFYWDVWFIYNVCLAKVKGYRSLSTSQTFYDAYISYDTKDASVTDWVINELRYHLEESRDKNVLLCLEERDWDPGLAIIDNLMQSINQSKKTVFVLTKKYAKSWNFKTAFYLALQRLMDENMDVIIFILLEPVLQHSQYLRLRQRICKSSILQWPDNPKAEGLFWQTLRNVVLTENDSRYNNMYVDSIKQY
Overview of reported EC50 across a group of molecules:
Only the number, expressed in nM, is required.

Molecule	EC50 (nM)
CCOCc1nc2c(N)nc3ccccc3c2n1C[C@H](C)O[P@@](=O)(N[C@@H](C)C(=O)OC(C)C)Oc1ccccc1 (single isomer, unassigned) [Example 2B]	77

q: So what does the record say about EC50 for CCOCc1nc2c(N)nc3ccccc3c2n1C[C@@H](C)O[P@@](=O)(N[C@@H](C)C(=O)OC(C)C)Oc1ccccc1 (single isomer, unassigned) [Example 2A] ?
a: 881

Data origin, for the record: patent US20230008368A1
